- Tested on: GAMG (Glioblastoma)
- ASSAY NAME: combination Emax (second highest fraction inhibited in the dose matrix, 72 h); higher = more inhibition; extreme values may be limits of the assay
OBSERVATION TYPE: combination Emax
Hey, just send me the number, nothing else.

Record NC1(C(=O)N[C@@H](CCO)c2ccc(Cl)cc2)CCN(c2ncnc3[nH]ccc23)CC1 [Capivasertib] + CC(=O)c1c(C)c2cnc(Nc3ccc(N4CCNCC4)cn3)nc2n(C2CCCC2)c1=O [Palbociclib] (first compound max 10 µM, 7x7, partner max 10 µM) has GAMG (Glioblastoma) combination Emax equal to 0.596

Record COc1cccc(OCCCN)c1-c1cc(Nc2cnc(C#N)cn2)n[nH]1 [Prexasertib] + Cc1cc2ncnn2cc1Nc1ncc2c(n1)n(C1CCOCC1)c(=O)n2C [AZD7648] (first compound max 1 µM, 7x7, partner max 10 µM) has GAMG (Glioblastoma) combination Emax equal to 0.777

Record CC1(C)CCC(CN2CCN(c3ccc(C(=O)NS(=O)(=O)c4ccc(NCC5CCOCC5)c([N+](=O)[O-])c4)c(Oc4cnc5[nH]ccc5c4)c3)CC2)=C(c2ccc(Cl)cc2)C1 [Venetoclax] + Cc1cc2ncnn2cc1Nc1ncc2c(n1)n(C1CCOCC1)c(=O)n2C [AZD7648] (first compound max 1 µM, 7x7, partner max 10 µM) has GAMG (Glioblastoma) combination Emax equal to 0.377

More entries:
Record NC1(C(=O)N[C@@H](CCO)c2ccc(Cl)cc2)CCN(c2ncnc3[nH]ccc23)CC1 [Capivasertib] + CC(C)n1c(=O)n(C)c2cnc3cc(F)c(-c4ccc(OCCCN5CCCCC5)nc4)cc3c21 [AZD1390] (first compound max 10 µM, 7x7, partner max 0.3 µM) has GAMG (Glioblastoma) combination Emax equal to 0.512

---

Entries and their measured Bliss excess follow.
- Tested on: TGBC1TKB (Biliary Tract Carcinoma)
- ASSAY NAME: Bliss excess, mean over the matrix (fraction); higher = more synergy

Sure, the documented Bliss excess for CN(C)CCCOc1ccc(-c2ccc3ncc4c(c3c2)n(C2CCOCC2)c(=O)n4C)cn1 [AZD0156] + C=CCn1c(=O)c2cnc(Nc3ccc(N4CCN(C)CC4)cc3)nc2n1-c1cccc(C(C)(C)O)n1 [AZD1775] (first compound max 1 µM, partner max 1 µM) is -0.0734

Sure, the documented Bliss excess for CN(C)CCCOc1ccc(-c2ccc3ncc4c(c3c2)n(C2CCOCC2)c(=O)n4C)cn1 [AZD0156] + C[C@@H]1COCCN1C2=NC(=NC(=C2)C3(CC3)[S@](=N)(=O)C)C4=C5C=CNC5=NC=C4 [AZD6738] (first compound max 1 µM, 7x7, partner max 10 µM) is -0.0227

Sure, the documented Bliss excess for COc1cccc2c1C(=O)c1c(O)c3c(c(O)c1C2=O)C[C@@](O)(C(=O)CO)C[C@@H]3O[C@H]1C[C@H](N)[C@H](O)[C@H](C)O1 [Doxorubicin] + Cc1cc2ncnn2cc1Nc1ncc2c(n1)n(C1CCOCC1)c(=O)n2C [AZD7648] (first compound max 1 µM, 7x7, partner max 10 µM) is -0.0247

Sure, the documented Bliss excess for Cc1c2c(nn1C)CSCc1cc(n(C)n1)CSc1cc(c3ccccc3c1)OCCCc1c(C(=O)O)n(C)c3c-2c(Cl)ccc13 [AZD5991] + C[C@@H]1COCCN1C2=NC(=NC(=C2)C3(CC3)[S@](=N)(=O)C)C4=C5C=CNC5=NC=C4 [AZD6738] (first compound max 1 µM, 7x7, partner max 10 µM) is 0.0537

Sure, the documented Bliss excess for N#Cc1cnc(Nc2cc(NC[C@H]3CNCCO3)c(C(F)(F)F)cn2)cn1 [SRA737] + CCc1c2c(nc3ccc(O)cc13)-c1cc3c(c(=O)n1C2)COC(=O)[C@]3(O)CC [SN-38] (first compound max 10 µM, 7x7, partner max 0.3 µM) is 0.0008

---

- System: NCI-H2052 (Mesothelioma)
- ASSAY NAME: combination Emax (second highest fraction inhibited in the dose matrix, 72 h); higher = more inhibition; extreme values may be limits of the assay
Entries and their measured combination Emax follow.
Hey, just send me the number, nothing else.

Observe how each entry below is paired with its result.
Sure, the documented combination Emax for COc1nnc2ccc(N3CCC(c4ccc(OCCN5CCN(C)C(=O)[C@H]5C)cc4)CC3)nn12 [AZD5153] + CN(CC[C@H](CSC1=CC=CC=C1)NC2=C(C=C(C=C2)S(=O)(=O)NC(=O)C3=CC=C(C=C3)N4CCC(CC4)[C@H](C5=CC=CC=C5C6=CC=C(C=C6)Cl)O)S(=O)(=O)C(F)(F)F)CCO [AZD4320] (first compound max 1 µM, 7x7, partner max 1 µM) is 0.189

Sure, the documented combination Emax for Cn1cnc2c(F)c(Nc3ccc(Br)cc3Cl)c(C(=O)NOCCO)cc21 [Selumetinib] + CCN(CCO)CCCOc1ccc2c(Nc3cc(CC(=O)Nc4cccc(F)c4)[nH]n3)ncnc2c1 [AZD2811] (first compound max 10 µM, 7x7, partner max 1 µM) is 0.232

Sure, the documented combination Emax for C=CCn1c(=O)c2cnc(Nc3ccc(N4CCN(C)CC4)cc3)nc2n1-c1cccc(C(C)(C)O)n1 [AZD1775] + C1CN(CCC1(C(=O)N[C@@H](CCO)C2=CC=C(C=C2)Cl)N)C3=NC=NC4=C3C=CN4 [Capivasertib] (first compound max 3 µM, partner max 3 µM) is 0.518

Now let's try a different one.
Sure, the documented combination Emax for Cc1c2c(nn1C)CSCc1cc(n(C)n1)CSc1cc(c3ccccc3c1)OCCCc1c(C(=O)O)n(C)c3c-2c(Cl)ccc13 [AZD5991] + CCN(CCO)CCCOc1ccc2c(Nc3cc(CC(=O)Nc4cccc(F)c4)[nH]n3)ncnc2c1 [AZD2811] (first compound max 1 µM, 7x7, partner max 1 µM) is 0.265

---

- Tested on: OV-56 (Ovarian Carcinoma)
- ASSAY NAME: combination Emax (second highest fraction inhibited in the dose matrix, 72 h); higher = more inhibition; extreme values may be limits of the assay
OBSERVATION TYPE: combination Emax
Hey, just send me the number, nothing else.

Observe how each entry below is paired with its result.
Sure, the documented combination Emax for CN(CCO)CC[C@H](CSc1ccccc1)Nc1ccc(S(=O)(=O)NC(=O)c2ccc(N3CCC([C@@H](O)c4ccccc4-c4ccc(Cl)cc4)CC3)cc2)cc1S(=O)(=O)C(F)(F)F [AZD4320] + C[C@@H](Nc1cc(F)cc(F)c1)c1cc(C(=O)N(C)C)cc2c(=O)cc(N3CCOCC3)oc12 [AZD8186] (first compound max 1 µM, 7x7, partner max 3 µM) is 0.277

Sure, the documented combination Emax for Cc1c2c(nn1C)CSCc1cc(n(C)n1)CSc1cc(c3ccccc3c1)OCCCc1c(C(=O)O)n(C)c3c-2c(Cl)ccc13 [AZD5991] + C=CCn1c(=O)c2cnc(Nc3ccc(N4CCN(C)CC4)cc3)nc2n1-c1cccc(C(C)(C)O)n1 [AZD1775] (first compound max 1 µM, partner max 1 µM) is 0.244

More entries:
Sure, the documented combination Emax for CCN(CCO)CCCOc1ccc2c(Nc3cc(CC(=O)Nc4cccc(F)c4)[nH]n3)ncnc2c1 [AZD2811] + C=CCn1c(=O)c2cnc(Nc3ccc(N4CCN(C)CC4)cc3)nc2n1-c1cccc(C(C)(C)O)n1 [AZD1775] (first compound max 1 µM, partner max 1 µM) is 0.139

---

- Test system: BFTC-909 (Kidney Carcinoma)
- ASSAY NAME: Bliss excess, mean over the matrix (fraction); higher = more synergy
Entries and their measured Bliss excess follow.
Hey, just send me the number, nothing else.

Observe how each entry below is paired with its result.
Sure, the documented Bliss excess for C=CCn1c(=O)c2cnc(Nc3ccc(N4CCN(C)CC4)cc3)nc2n1-c1cccc(C(C)(C)O)n1 [AZD1775] + O=C(c1cc(Cc2n[nH]c(=O)c3ccccc23)ccc1F)N1CCN(C(=O)C2CC2)CC1 [Olaparib] (first compound max 1 µM, partner max 10 µM) is 0.0075

Sure, the documented Bliss excess for CC1(C)CCC(CN2CCN(c3ccc(C(=O)NS(=O)(=O)c4ccc(NCC5CCOCC5)c([N+](=O)[O-])c4)c(Oc4cnc5[nH]ccc5c4)c3)CC2)=C(c2ccc(Cl)cc2)C1 [Venetoclax] + Cc1cc2ncnn2cc1Nc1ncc2c(n1)n(C1CCOCC1)c(=O)n2C [AZD7648] (first compound max 1 µM, 7x7, partner max 10 µM) is 0.0017

Sure, the documented Bliss excess for NC1(C(=O)N[C@@H](CCO)c2ccc(Cl)cc2)CCN(c2ncnc3[nH]ccc23)CC1 [Capivasertib] + CC(C)n1c(=O)n(C)c2cnc3cc(F)c(-c4ccc(OCCCN5CCCCC5)nc4)cc3c21 [AZD1390] (first compound max 10 µM, 7x7, partner max 0.3 µM) is -0.013

Sure, the documented Bliss excess for COc1nnc2ccc(N3CCC(c4ccc(OCCN5CCN(C)C(=O)[C@H]5C)cc4)CC3)nn12 [AZD5153] + Cn1cnc2c(F)c(Nc3ccc(Br)cc3Cl)c(C(=O)NOCCO)cc21 [Selumetinib] (first compound max 1 µM, 7x7, partner max 10 µM) is -0.0399

Sure, the documented Bliss excess for Cc1cc2ncnn2cc1Nc1ncc2c(n1)n(C1CCOCC1)c(=O)n2C [AZD7648] + CN(C)CCCOc1ccc(-c2ccc3ncc4c(c3c2)n(C2CCOCC2)c(=O)n4C)cn1 [AZD0156] (first compound max 10 µM, 7x7, partner max 1 µM) is -0.0032

Sure, the documented Bliss excess for CCc1c2c(nc3ccc(O)cc13)-c1cc3c(c(=O)n1C2)COC(=O)[C@]3(O)CC [SN-38] + CN(C)CCCOc1ccc(-c2ccc3ncc4c(c3c2)n(C2CCOCC2)c(=O)n4C)cn1 [AZD0156] (first compound max 0.3 µM, 7x7, partner max 1 µM) is 0.0225

More entries:
Sure, the documented Bliss excess for CN(C)CCCOc1ccc(-c2ccc3ncc4c(c3c2)n(C2CCOCC2)c(=O)n4C)cn1 [AZD0156] + O=C(c1cc(Cc2n[nH]c(=O)c3ccccc23)ccc1F)N1CCN(C(=O)C2CC2)CC1 [Olaparib] (first compound max 3 µM, partner max 3 µM) is 0.0705

FYI, the data here is from the supplement of paper PMC11061612.
